Molecular target: DYRK1B (Homo sapiens)
Construct: purchased Carna Bioscence (Carna Biosciences) 04-131
Sequence (Q9Y463 whole entry): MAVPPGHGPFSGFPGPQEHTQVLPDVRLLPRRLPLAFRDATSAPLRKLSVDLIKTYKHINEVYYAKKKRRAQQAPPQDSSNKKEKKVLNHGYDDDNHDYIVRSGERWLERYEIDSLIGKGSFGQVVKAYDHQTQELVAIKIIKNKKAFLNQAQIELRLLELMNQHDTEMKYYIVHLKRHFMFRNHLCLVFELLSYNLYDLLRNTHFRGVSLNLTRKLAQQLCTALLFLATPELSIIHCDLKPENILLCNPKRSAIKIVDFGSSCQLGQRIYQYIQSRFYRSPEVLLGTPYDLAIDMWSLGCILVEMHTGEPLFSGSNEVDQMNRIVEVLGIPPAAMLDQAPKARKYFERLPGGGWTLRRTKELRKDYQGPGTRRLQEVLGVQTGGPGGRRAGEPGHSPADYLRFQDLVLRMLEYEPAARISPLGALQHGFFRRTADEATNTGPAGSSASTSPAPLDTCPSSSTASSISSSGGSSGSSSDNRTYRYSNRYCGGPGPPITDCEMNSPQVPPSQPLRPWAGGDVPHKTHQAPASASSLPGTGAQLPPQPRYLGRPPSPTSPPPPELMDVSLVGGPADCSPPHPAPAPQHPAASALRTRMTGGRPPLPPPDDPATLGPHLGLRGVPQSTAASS
Test: DYRK1B in vitro kinase assay (ADP-Glo)
Type: biochemical
Settings: ADP-Glo assay, ATP 15 μM (Km), substrate 7 μM, enzyme 1 nM or 0.3 nM, 1 h, rt; read-out: DYRK1B IC50
pIC50: −log10 of the molar value. Structures can show the parent of a compound that is named as a salt.
observed-property: pIC50

- molecule: "C=CCN(C)C(=O)c1cnc2[nH]cc(-c3cc(F)c4ncccc4c3)c2c1"
  observed-property: "pIC50"
  result: "> 8.00"
- molecule: "CNC(=O)c1cnc2[nH]cc(-c3cc(F)c4nccc(N5CCC[C@@H](N)C5)c4c3)c2c1 [Example 41, hydrochloride]"
  observed-property: "pIC50"
  result: "> 8.00"
- molecule: "C=CCN(C)C(=O)c1cnc2[nH]cc(-c3ccc4nccc(Cl)c4c3)c2c1"
  observed-property: "pIC50"
  result: "> 8.00"
- molecule: "CN1CCC(N(C)c2c([N+](=O)[O-])cnc3ccc(-c4c[nH]c5ncccc45)cc23)CC1"
  observed-property: "pIC50"
  result: "7.00 to 8.00"
- molecule: "COc1cc(-c2c[nH]c3ncc(C(N)=O)cc23)cc2c(-c3cccnc3)ccnc12"
  observed-property: "pIC50"
  result: "7.00 to 8.00"
- molecule: "O=C(NCc1ccccc1)c1cnc2[nH]cc(-c3cc(Cl)c4ncccc4c3)c2c1"
  observed-property: "pIC50"
  result: "> 8.00"
- molecule: "CNC(=O)c1cnc2[nH]cc(-c3ccc4nccc(N5CCOCC5)c4c3)c2c1"
  observed-property: "pIC50"
  result: "> 8.00"
- molecule: "N[C@@H]1CCCN(c2ccnc3c(F)cc(-c4c[nH]c5ncc(C(=O)NCc6cncnc6)cc45)cc23)C1 [Example 49, hydrochloride]"
  observed-property: "pIC50"
  result: "> 8.00"

* * *

# DYRK1A (Homo sapiens, UniProt Q13627): pIC50 values follow
pIC50: −log10 of the molar value. Structures can show the parent of a compound that is named as a salt.

- compound: "CNC(=O)c1cnc2[nH]cc(-c3ccc4ncc(N)c(N5CCC[C@H](N)C5)c4c3)c2c1 [Example 54, hydrochloride]"
  pIC50: "> 8.00"
- compound: "Cc1cc(-c2c[nH]c3ncccc23)cc2c(-c3ccccc3)ccnc12 [Example 17]"
  pIC50: "< 7.00"
- compound: "Fc1cc(-c2c[nH]c3ncccc23)cc2cccnc12 [Example 13]"
  pIC50: "> 8.00"
- compound: "N[C@@H]1CCCN(c2ccnc3c(F)cc(-c4c[nH]c5ncc(C(=O)NCc6cccnc6)cc45)cc23)C1 [Example 48, hydrochloride]"
  pIC50: "> 8.00"
- compound: "Clc1cc(-c2c[nH]c3ncccc23)cc2cccnc12 [Example 11, hydrochloride]"
  pIC50: "> 8.00"
- compound: "CNC(=O)c1cnc2[nH]cc(-c3ccc4ncc([N+](=O)[O-])c(N5CCC[C@H](N)C5)c4c3)c2c1 [Example 53, hydrochloride]"
  pIC50: "7.00 to 8.00"
- compound: "NCCCNC(=O)c1cnc2[nH]cc(-c3cc(F)c4nccc(-c5cccnc5)c4c3)c2c1 [Example 37, hydrochloride]"
  pIC50: "> 8.00"

Hey, just so you know, these numbers are from patent US10577365B2.
